Target: hMGL (Homo sapiens (Human))
Sequence (Q99685 whole entry): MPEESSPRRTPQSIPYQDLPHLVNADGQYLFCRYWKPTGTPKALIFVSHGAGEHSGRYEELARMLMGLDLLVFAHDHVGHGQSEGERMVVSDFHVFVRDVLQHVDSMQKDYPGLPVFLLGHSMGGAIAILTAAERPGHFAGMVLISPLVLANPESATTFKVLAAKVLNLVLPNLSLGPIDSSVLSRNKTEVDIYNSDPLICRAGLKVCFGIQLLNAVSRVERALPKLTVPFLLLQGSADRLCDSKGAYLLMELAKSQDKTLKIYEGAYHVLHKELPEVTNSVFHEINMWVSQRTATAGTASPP
Test: Fluorescent assay for hMGL (AHMMCE substrate hydrolysis)
Details: E. coli lysate containing hMGL, read-out: hMGL Inhibition IC50
pIC50: −log10 of the molar value.
quantity.name: pIC50

Looking for the measured pIC50 of `O=C(OC(C(F)(F)F)C(F)(F)F)N1CC2(CC(Oc3cncc(F)c3)C2)C1` , can you help?
< 6.00

Looking for the measured pIC50 of `COc1cc2c(cc1OC)CN(C(=O)OC(C(F)(F)F)C(F)(F)F)C2` , can you help?
< 6.00

Looking for the measured pIC50 of CC1(C)C2C(=O)N(OC(=O)N3CC4(CCC(Oc5cncc(F)c5)C4)C3)C(=O)C21 (stereo not drawn) , can you help?
< 6.00

Looking for the measured pIC50 of `CN1CCN(c2ccc3c(c2)CN(C(=O)OC(C(F)(F)F)C(F)(F)F)C3)CC1` , can you help?
< 6.00

Looking for the measured pIC50 of `O=C(OC(CF)CF)N1CCc2c(Br)cccc2C1` , can you help?
< 6.00

Looking for the measured pIC50 of `COc1cccc2c1CCN(C(=O)OC(C(F)(F)F)C(F)(F)F)C2` , can you help?
< 6.00

Looking for the measured pIC50 of `O=C(OC(C(F)(F)F)C(F)(F)F)N1CC[C@]2(C1)C[C@@H](OC(c1ccc(F)cc1)c1ccc(F)cc1)C2` , can you help?
7.00 to 8.00

Looking for the measured pIC50 of CC1(C)C2C(=O)N(OC(=O)N3CC4(CC(Oc5cccc(C(F)(F)F)c5)C4)C3)C(=O)C21 (stereo not drawn) , can you help?
< 6.00

Looking for the measured pIC50 of `CN(C)CCOc1ccc2c(c1)CN(C(=O)OC(C(F)(F)F)C(F)(F)F)C2` , can you help?
7.00 to 8.00

Looking for the measured pIC50 of `O=C(OC(C(F)(F)F)C(F)(F)F)N1Cc2ccc(OCCN3CCCCC3)cc2C1` , can you help?
7.00 to 8.00

Looking for the measured pIC50 of `O=C(OC(C(F)(F)F)C(F)(F)F)N1Cc2ccc(OCC(F)F)cc2C1` , can you help?
7.00 to 8.00

Looking for the measured pIC50 of `O=C(OC(C(F)(F)F)C(F)(F)F)N1CCc2cccc(Br)c2C1` , can you help?
< 6.00

Looking for the measured pIC50 of `O=C(OC(C(F)(F)F)C(F)(F)F)N1CCc2cc(Br)ccc2C1` , can you help?
< 6.00

Looking for the measured pIC50 of `O=C(OC(C(F)(F)F)C(F)(F)F)N1CC2(CC(Oc3cccc(F)c3)C2)C1` , can you help?
7.00 to 8.00

Looking for the measured pIC50 of `COc1cccc2c1CN(C(=O)OC(C(F)(F)F)C(F)(F)F)C2` , can you help?
< 6.00

Looking for the measured pIC50 of `O=C(OC(C(F)(F)F)C(F)(F)F)N1CCc2ccccc2C1` , can you help?
< 6.00

Looking for the measured pIC50 of `COc1ccc2c(c1)CN(C(=O)OC(C(F)(F)F)C(F)(F)F)C2` , can you help?
< 6.00

Looking for the measured pIC50 of `O=C(OC(C(F)(F)F)C(F)(F)F)N1CCc2cccc(-c3ccccc3)c2C1` , can you help?
< 6.00
